Tested on: giant foxtail (Setaria faberii)
Assay: Test A pre-/postemergence plant response
Type: in vivo
Details: Setaria faberi, pre-emergence, 240 h; Preemergence, 500 g ai/ha; visual injury, 0 to 100 scale (0 no effect, 100 complete control), approx. ten days; read-out: Plant response rating, Foxtail, Giant

# smiles-notation, readout-units, pest or weed control at 500 g/ha
records = [
    ("Cc1c(F)cccc1-n1c(-c2ccccc2)ncc(C(=O)C2=C(O)CCCC2=O)c1=O", "%", 90),
    ("O=C1CCCC(O)=C1C(=O)c1cnc(-c2ccccc2)n(C2CCCCC2)c1=O", "%", 90),
    ("CCn1ncc(C(=O)c2cnc(-c3ccccc3)n(Cc3ccccc3)c2=O)c1O", "%", 20),
    ("O=C1CCCC(O)=C1C(=O)c1cnc(-c2cccnc2)n(-c2ccccc2)c1=O", "%", 90),
]

---

System: barnyardgrass (Echinochloa crus-galli)
Assay: Test A pre-/postemergence plant response
Type: in vivo
Details: Postemergence, 125 g ai/ha; visual injury, 0 to 100 scale (0 no effect, 100 complete control), approx. ten days
observable: Barnyardgrass plant response rating

# smiles-notation, study-system, observable, number
rows = [
    ("CCCCc1ncc(C(=O)C2=C(O)CCCC2=O)c(=O)n1-c1ccccc1C", "barnyardgrass (Echinochloa crus-galli)", "Barnyardgrass plant response rating", 80),
    ("COc1cccc(-n2c(-c3ccccc3)ncc(C(=O)C3=C(O)CCCC3=O)c2=O)c1", "barnyardgrass (Echinochloa crus-galli)", "Barnyardgrass plant response rating", 0),
    ("Cc1cccc(-n2c(-c3ccccc3)ncc(C(=O)C3=C(O)CCCC3=O)c2=O)c1F", "barnyardgrass (Echinochloa crus-galli)", "Barnyardgrass plant response rating", 50),
    ("CCn1c(-c2ccccc2)ncc(C(=O)C2=C(O)CCCC2=O)c1=O", "barnyardgrass (Echinochloa crus-galli)", "Barnyardgrass plant response rating", 60),
]

---

Test system: morningglory (Ipomoea spp.)
Assay: Test A pre-/postemergence plant response
Assay type: in vivo
Details: Preemergence, 500 g ai/ha; 0 to 100 scale, 0 = no effect, 100 = complete control
Please note: true (1) applies when Plant response rating, Morningglory is 70 or greater, and false (0) applies otherwise.

# molecule, cat
measured = [
    ("O=C(C1=C(O)C2CCC(C2)C1=O)c1cnc(-c2ccccc2)n(CC2CCCO2)c1=O (centres unmarked) [Compound 250]", "false (0)"),
    ("COCCCn1c(-c2cc(F)cc(F)c2)ncc(C(=O)C2=C(O)C3CCC(C3)C2=O)c1=O (centres unmarked) [Compound 244]", "true (1)"),
    ("O=C1CCCC(O)=C1C(=O)c1cnc(-c2ccco2)n(C2CCCCC2)c1=O [Compound 188]", "true (1)"),
    ("CCOCCn1c(-c2cc(F)cc(F)c2)ncc(C(=O)C2=C(O)CCCC2=O)c1=O [Compound 182]", "true (1)"),
    ("CCc1ccc(-n2c(-c3cccc(Br)c3)ncc(C(=O)C3=C(O)CCCC3=O)c2=O)cc1 [Compound 175]", "false (0)"),
    ("CCCn1c(-c2ccco2)ncc(C(=O)C2=C(O)C3CCC(C3)C2=O)c1=O (centres unmarked) [Compound 230]", "false (0)"),
]

---

Test system: morningglory (Ipomoea coccinea)
Test: Test B pre-/postemergence plant response
Format: in vivo
Settings: Postemergence, 250 g ai/ha; scale 0 to 100 (0 no effect, 100 complete control)
Collected Plant response rating, Morningglory values appear next to each entry.
observable: Plant response rating, Morningglory

# compound, number
data = [
    ("COCCn1c(-c2ccco2)ncc(C(=O)C2=C(O)CCCC2=O)c1=O [Compound 111]", 100),
    ("COCCOCCn1c(-c2ccccc2)ncc(C(=O)C2=C(O)CCCC2=O)c1=O [Compound 91]", 98),
    ("CCCn1c(-c2cccc(OC)c2)ncc(C(=O)C2=C(O)CCCC2=O)c1=O [Compound 100]", 100),
    ("CC(C)Cc1ncc(C(=O)C2=C(O)CCCC2=O)c(=O)n1-c1ccccc1 [Compound 68]", 100),
    ("CCCc1ncc(C(=O)C2=C(O)CCCC2=O)c(=O)n1CCC [Compound 72]", 90),
    ("O=C1CCCC(O)=C1C(=O)c1cnc(-c2cccs2)n(-c2ccccc2)c1=O [Compound 66]", 100),
]
